Tested on: BT-549
ASSAY SUMMARY: NCI tumour cell line growth inhibition, 48 h
Activity calls are given as the source filed them. No stated cut-off is given here; in the data, active = GI50 up to about 1.1 µM and inactive = higher.
The categories you may choose from are 1.0 for active, 0.0 for inactive

Prompt: Hi team, can someone confirm the assay call for CC(=O)c1c2c(cc3c1CC1(C3)Cc3ccc4c(c3C1=O)CCC4)CCC2 (centres undefined) ?
Response: 0.0

Prompt: Entry NC(=O)c1cccc(OCC(O)CO)c1 (centres undefined) : call = ?
Response: 0.0

Prompt: Lab log entry: Cc1ccc(O)c(-c2cscn2)c1 — outcome as called in the assay?
Response: 0.0

Prompt: # lookup: test call for CC[C@@]1(OC(=O)CN(C)C)C(=O)OCc2c1cc1n(c2=O)Cc2cc3ccccc3nc2-1
Response: 1.0
